Test: Kinetics of lactone ring opening in whole human blood (HPLC);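 further: hydrolytic opening of the camptothecin lactone ring followed over time by quantitative C18 reversed-phase HPLC in human whole blood at physiological temperature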
Settings: Whole Blood, physiological temperature
readout.label: t1/2 (h)

>  <molecule>
CC[C@@]1(O)C(=O)OCc2c1cc1n(c2=O)Cc2c-1nc1ccccc1c2[Si](C)(C)CCCCl [DB-148]

>  <value>
1.43

$$$$
>  <molecule>
CC[C@@]1(O)C(=O)OCc2c1cc1n(c2=O)Cc2c-1nc1ccc(O)cc1c2[Si](C)(C)CCCCl [DB-158]

>  <value>
1.09

$$$$
>  <molecule>
CC[C@@]1(O)C(=O)OCc2c1cc1n(c2=O)Cc2c-1nc1ccc(O)cc1c2[Si](C)(C)CCCN(C)C.Cl [DB-124]

>  <value>
1.05

$$$$
>  <molecule>
CC[C@@]1(O)C(=O)OCc2c1cc1n(c2=O)Cc2c-1nc1ccccc1c2CC[Si](C)(C)C [DB-172]

>  <value>
1.777

$$$$
>  <molecule>
CC[C@@]1(O)C(=O)OCc2c1cc1n(c2=O)Cc2c-1nc1ccc(O)cc1c2[Si](C)(C)C(C)(C)C [DB-67]

>  <value>
2.217

$$$$
